I'd appreciate it if you could supply growth values for the items below.
System: MDA-MB-468 breast
Assay: NCI-60 one-dose screen, 48 h (100 = growth as untreated, 0 = no growth, -100 = all killed)
Details: 10 µM unless noted
Compounds without any hit were thinned out: in the full panel of roughly 83,000, 20% have a hit.
One number for each entry, in %.

Sample records with growth:
CNC1=C([N+](=O)[O-])C(c2ccc(OC)cc2)C(C#N)=C(c2ccc[nH]2)O1 (stereo not given) :: 96.1
Nc1c(C(=O)Nc2ccccn2)sc2nc3c(cc12)CCCC3 :: 43.8
COC(=O)N[C@H]1CCc2c(Cl)c(OC)c(OC)c(OC)c2-c2ccc(SC)c(=O)cc21 :: -18.8
COc1cccc(/C=C(/C)c2ccc3cccc(OC)c3[o+]2)c1O :: 95.9

Kindly consider the entry below.
Entry Oc1ccc(-c2cnc(-c3ccccc3)[nH]2)c(O)c1 has what growth?
109

----------
Test system: MDA-MB-468 breast
Test: NCI-60 one-dose screen, 48 h (100 = growth as untreated, 0 = no growth, -100 = all killed)
Settings: 10 µM unless noted
Compounds without any hit were thinned out: in the full panel of roughly 83,000, 20% have a hit.
Quantity kind: growth (%)
Give bare numbers, in %.

Cc1ccc([P+](Cc2ccc([N+](=O)[O-])cc2)(c2ccc(C)cc2)c2ccc(C)cc2)cc1 :: -11.7
COc1cc(-c2c3c(cn2S(=O)(=O)c2ccccc2)-c2nc(N)sc2CC3)cc(OC)c1OC :: 23.4
CC[C@]12C=CCN3CC[C@@]4(c5ccc(OC)cc5N(C)[C@H]4[C@@](O)(C(=O)OC)[C@@H]1OC(=O)CCC(=O)O[C@H]1CC[C@H]4[C@@H]5CC[C@H]6CC(=O)CC[C@]6(C)[C@H]5CC[C@]14C)[C@@H]32 :: 24.8
O=C(CN1CCN(c2cc(=O)n(-c3ccccc3)c3ccccc23)CC1)Nc1ccc(F)cc1 :: 9.45
CC(C)=CCc1cc(O)cc2c1OC(C=C(C)C)C1=C2C(=O)C2=C(C1=O)S(=O)(=O)CCN2 (stereo not drawn) :: -31.2

Report growth for every entry below.
1. CNCCCOc1c(Br)cc(CCNC(=O)/C(Cc2cc(Br)c(OC)c(Br)c2)=N/O)cc1Br
2. N[C@H]1CCC[C@@H]1NCCCCN1C(=O)c2cccc3cc([N+](=O)[O-])cc(c23)C1=O
3. Oc1ccc(-c2nc3ccccc3s2)cc1CN(Cc1ccccn1)Cc1ccccn1

[3.11, 38.8, 13.6]

----------
Test system: MDA-MB-468 breast
Experiment: NCI-60 one-dose screen, 48 h
Conditions: 10 µM unless noted
This is part of a sample that, as a whole, favours compounds with a hit. Of some 83,000 tested, about 20% had one in any assay. Calls of active or inactive are those of the source. How the source made its calls: active means growth percent below 10; inactive means the rest.
The categories you may choose from are active, inactive

Known results for compounds:
O=C(Nc1cccc(-n2cc(-c3ccncc3)c(-c3ccc(O)c(Cl)c3)n2)c1)c1ccc(N2CCOCC2)c(C(F)(F)F)c1 :: inactive
C=CCN(CCOC(=O)c1ccc([N+](=O)[O-])cc1)CCOC(=O)c1ccc([N+](=O)[O-])cc1 :: inactive
CC1CCCCN1S(=O)(=O)c1ccc(CN=C=S)cc1 (stereo unspecified) :: inactive
CC(C)CC1NC(=O)C(CC(C)C)N(CO)C1=O (stereo unspecified) :: inactive

Could you kindly confirm the outcome this assay logged for CCC(=O)Oc1ccc(/C(=C(/C)Cc2cccc(OC)c2)c2ccc(OCCN(C)C)cc2)cc1 ?
inactive

Could you kindly confirm the outcome this assay logged for COc1ccc(-c2cc(C(=O)N=Nc3c(O)[nH]c4ccccc34)c3ccccc3n2)cc1OC ?
inactive

Could you kindly confirm the outcome this assay logged for NS(=O)(=O)c1ccc(Nc2nc(Nc3ccccc3)nc(N3N=C(c4ccc(Cl)cc4)CC3c3ccc(Cl)cc3)n2)cc1 (stereo unspecified) ?
inactive

Could you kindly confirm the outcome this assay logged for O=S(=O)(O)CC(O)CN1CCN(CCO)CC1 (stereo unspecified) ?
inactive

Could you kindly confirm the outcome this assay logged for O=Nc1c2cccnc2n2nnc3ccc(Cl)cc3c12 ?
active

Could you kindly confirm the outcome this assay logged for CCN(CC)CCC(=O)c1ccc(OC)c2ccccc12 ?
inactive

Could you kindly confirm the outcome this assay logged for COc1ccc(C(=O)c2sc3nc(-c4cccs4)ccc3c2N)cc1OC ?
active

Could you kindly confirm the outcome this assay logged for O=S(=O)(Nc1ccc2c(c1)OCO2)c1ccc(-c2cnc(C3CC3)o2)cc1 ?
active

Could you kindly confirm the outcome this assay logged for N#Cc1c2c([nH]c(=O)c1C(N)=O)CCCCC2 ?
inactive

Could you kindly confirm the outcome this assay logged for C/C(=C(/C)C1CC1CCN(C(=O)c1ccccn1)S(=O)(=O)c1ccc(C)cc1)C1CCCCC1 (stereo unspecified) ?
inactive

Could you kindly confirm the outcome this assay logged for Cc1nc2ccccc2c(N)c1-c1cc(C)c2c(C)nc3ccccc3c2n1 ?
active

Sourced from PubChem BioAssay (NCI)
